Source of measurements: patent US10703764B2

- ASSAYED_SYSTEM: BRD4 BD1 (Homo sapiens)
- ASSAY_EXPLANATION: AlphaScreen binding assay, BRD4 Bromodomain 1
ASSAY_READOUT: IC50

Record excerpt, results attached:
STRUCTURE_SMILES | ASSAYED_SYSTEM | IC50
CC(=O)N1c2cc(N)c(-c3ccc(S(C)(=O)=O)cc3)cc2N(C(=O)OC(C)C)C[C@@H]1C | BRD4 BD1 (Homo sapiens) | 1 to 10 µM
CC(=O)N1c2ccc(-c3cnn(C4CC4)c3)cc2N(C(=O)Oc2cccc3nccnc23)C[C@@H]1C | BRD4 BD1 (Homo sapiens) | 0.1 to 1 µM

The reported value for "CC(=O)N1c2ccc(-c3cnn(C4CC4)c3)cc2N(C(=O)C2CC2)C[C@@H]1C" in terms of IC50 is 0.1 to 1 µM

The reported value for "CC(=O)N1c2ccc(-c3cnn(C4COC4)c3)cc2N(C(=O)OCC2CCC2)C[C@@H]1C" in terms of IC50 is 0.1 to 1 µM

The reported value for "CC(=O)N1c2ccc(-c3ccc(S(C)(=O)=O)cc3)cc2N(C(=O)Nc2ccccc2Cl)C[C@@H]1C" in terms of IC50 is 1 to 10 µM

The reported value for "CC(=O)N1c2ccc(-c3ccc(S(C)(=O)=O)cc3)cc2N(C(=O)Nc2ccc(C)cc2)C[C@@H]1C" in terms of IC50 is 1 to 10 µM

The reported value for "CC(=O)N1c2ccc(-c3ccc(C(=O)N4CCSCC4)cc3)cc2N(C(=O)OC(C)C)C[C@@H]1C" in terms of IC50 is 0.1 to 1 µM

The reported value for "CC(=O)N1c2ccc(-c3ccc(S(C)(=O)=O)cc3)cc2N(C(=O)OC2CCOCC2)C[C@@H]1C" in terms of IC50 is 0.1 to 1 µM

The reported value for "CC(=O)N1c2ccc(-c3cnn(Cc4cnccn4)c3)cc2N(C(=O)OC(C)C)C[C@@H]1C" in terms of IC50 is 0.1 to 1 µM

The reported value for "CC(=O)N1c2ccc(-c3ccc(S(=O)(=O)N(C)C)cc3)cc2N(C(=O)C2CCC2)C[C@@H]1C" in terms of IC50 is 1 to 10 µM
